Cited source for all entries: patent US20240279345A1

system name: T1, rh-α4β1 (Homo sapiens, UniProt P05556+P13612)
T1 construct: purchased R&D Systems 3230-A5 & 5668-A4
T1 sequence (P13612 34-977 limits assumed): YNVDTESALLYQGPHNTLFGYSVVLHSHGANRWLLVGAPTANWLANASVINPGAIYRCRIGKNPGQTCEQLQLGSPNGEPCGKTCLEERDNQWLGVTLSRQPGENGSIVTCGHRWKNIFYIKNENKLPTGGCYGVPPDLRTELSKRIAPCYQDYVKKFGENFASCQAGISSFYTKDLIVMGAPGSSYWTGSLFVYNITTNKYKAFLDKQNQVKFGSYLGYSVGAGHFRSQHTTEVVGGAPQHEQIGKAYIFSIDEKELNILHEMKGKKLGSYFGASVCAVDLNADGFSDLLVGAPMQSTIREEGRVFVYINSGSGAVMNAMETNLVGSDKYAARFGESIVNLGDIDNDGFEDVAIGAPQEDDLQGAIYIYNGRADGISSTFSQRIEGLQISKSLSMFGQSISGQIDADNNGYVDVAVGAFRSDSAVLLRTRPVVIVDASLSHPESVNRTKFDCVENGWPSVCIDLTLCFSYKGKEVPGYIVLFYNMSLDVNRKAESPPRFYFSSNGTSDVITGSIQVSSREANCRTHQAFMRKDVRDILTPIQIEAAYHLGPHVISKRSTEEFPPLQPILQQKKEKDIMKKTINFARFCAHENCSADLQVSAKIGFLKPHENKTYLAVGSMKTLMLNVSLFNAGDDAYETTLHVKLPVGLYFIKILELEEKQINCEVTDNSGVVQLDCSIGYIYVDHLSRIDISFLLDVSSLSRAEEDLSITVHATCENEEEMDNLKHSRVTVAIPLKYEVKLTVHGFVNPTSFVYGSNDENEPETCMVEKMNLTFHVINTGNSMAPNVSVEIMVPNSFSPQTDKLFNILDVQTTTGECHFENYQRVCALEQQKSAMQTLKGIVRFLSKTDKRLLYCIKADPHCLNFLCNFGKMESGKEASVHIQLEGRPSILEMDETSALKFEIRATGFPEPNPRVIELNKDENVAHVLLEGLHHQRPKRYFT
T1 sequence (P05556 21-728 limits assumed): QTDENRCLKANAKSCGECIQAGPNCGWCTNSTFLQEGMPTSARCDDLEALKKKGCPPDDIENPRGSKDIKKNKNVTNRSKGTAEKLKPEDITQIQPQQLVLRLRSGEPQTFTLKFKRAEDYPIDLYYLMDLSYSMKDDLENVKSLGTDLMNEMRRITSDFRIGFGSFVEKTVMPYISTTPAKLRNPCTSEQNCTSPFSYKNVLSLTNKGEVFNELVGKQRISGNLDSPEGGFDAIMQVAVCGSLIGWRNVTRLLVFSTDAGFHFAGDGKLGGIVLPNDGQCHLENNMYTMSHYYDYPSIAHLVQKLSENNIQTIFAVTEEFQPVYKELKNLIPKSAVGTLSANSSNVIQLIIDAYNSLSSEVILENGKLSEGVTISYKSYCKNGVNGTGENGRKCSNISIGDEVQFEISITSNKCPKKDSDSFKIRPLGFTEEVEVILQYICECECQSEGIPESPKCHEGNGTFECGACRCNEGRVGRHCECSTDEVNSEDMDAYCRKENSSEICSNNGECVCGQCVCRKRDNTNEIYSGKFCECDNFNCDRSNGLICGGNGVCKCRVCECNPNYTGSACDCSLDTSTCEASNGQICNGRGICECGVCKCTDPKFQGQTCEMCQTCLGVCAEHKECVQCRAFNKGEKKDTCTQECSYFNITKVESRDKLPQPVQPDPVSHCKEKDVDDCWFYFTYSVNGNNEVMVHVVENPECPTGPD
test protocol: Plate-based ELISA reactivity to rh-α4β1 (α5 subunit specificity)
Assay type: binding
assay setup: hybridoma supernatant diluted 1:10; plate coated with rh-α4β1
Quick list: Absorbance 450 nm Human α4β1 per entry.

# count of solved cases: 3
>  <molecule>
A2-8H11: hybridoma clone positive on K562 cells (antibody, V domains shown) VH: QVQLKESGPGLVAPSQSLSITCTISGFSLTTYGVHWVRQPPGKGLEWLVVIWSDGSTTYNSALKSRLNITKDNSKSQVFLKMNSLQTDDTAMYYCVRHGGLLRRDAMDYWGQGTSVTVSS VL: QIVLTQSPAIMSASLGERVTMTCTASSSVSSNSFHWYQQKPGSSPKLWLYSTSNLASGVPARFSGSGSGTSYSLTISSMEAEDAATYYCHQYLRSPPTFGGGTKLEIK

>  <Absorbance 450 nm Human α4β1>
0.0595

$$$$
>  <molecule>
A2-6C10: hybridoma clone positive on K562 cells (antibody, V domains shown) VH: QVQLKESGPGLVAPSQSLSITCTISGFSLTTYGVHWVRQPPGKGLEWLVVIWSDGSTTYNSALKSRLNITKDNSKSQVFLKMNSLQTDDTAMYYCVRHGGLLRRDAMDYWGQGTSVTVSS VL: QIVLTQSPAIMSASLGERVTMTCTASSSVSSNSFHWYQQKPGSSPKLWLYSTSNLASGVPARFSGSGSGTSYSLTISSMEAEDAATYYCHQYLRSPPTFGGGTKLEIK

>  <Absorbance 450 nm Human α4β1>
0.0609

$$$$
>  <molecule>
A2-3B06: anti-α5β1 antibody, VH SEQ ID NO:42, VL SEQ ID NO:43 (antibody, V domains shown, A2-3B06 VH Sequence; A2-3B06 VL Sequence) VH: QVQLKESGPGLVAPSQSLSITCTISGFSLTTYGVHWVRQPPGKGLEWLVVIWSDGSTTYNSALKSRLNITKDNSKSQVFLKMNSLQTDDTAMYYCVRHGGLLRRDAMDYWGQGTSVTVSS VL: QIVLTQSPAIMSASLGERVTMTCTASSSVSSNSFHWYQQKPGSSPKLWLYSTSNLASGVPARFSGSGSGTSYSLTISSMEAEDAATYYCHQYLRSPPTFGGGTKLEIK

>  <Absorbance 450 nm Human α4β1>
0.0558

$$$$

Consider the additional molecule presented here.
Req: If you can, please state the reported Absorbance 450 nm Human α4β1 value of A2-9A11: hybridoma clone positive on K562 cells (antibody, V domains shown) VH: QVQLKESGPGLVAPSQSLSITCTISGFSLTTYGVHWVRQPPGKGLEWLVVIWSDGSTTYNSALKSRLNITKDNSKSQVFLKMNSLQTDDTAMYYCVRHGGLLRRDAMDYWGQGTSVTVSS VL: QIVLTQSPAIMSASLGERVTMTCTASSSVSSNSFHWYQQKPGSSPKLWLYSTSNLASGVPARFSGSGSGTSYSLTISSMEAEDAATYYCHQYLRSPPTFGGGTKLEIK .
Resp: 0.0608
